target: ITK (Mus musculus); construct: endogenous in cells; host or cells: primary mouse splenic lymphocytes; experiment: phosphorylation of ITK on Tyr 511 in mouse splenocytes (flow cytometry); format: cell-based; conditions: text does not separate Jurkat and mouse splenocytes, read-out: peptide concentration for fifty percent inhibition of ITK phosphorylation
Sequence (Q03526 whole entry): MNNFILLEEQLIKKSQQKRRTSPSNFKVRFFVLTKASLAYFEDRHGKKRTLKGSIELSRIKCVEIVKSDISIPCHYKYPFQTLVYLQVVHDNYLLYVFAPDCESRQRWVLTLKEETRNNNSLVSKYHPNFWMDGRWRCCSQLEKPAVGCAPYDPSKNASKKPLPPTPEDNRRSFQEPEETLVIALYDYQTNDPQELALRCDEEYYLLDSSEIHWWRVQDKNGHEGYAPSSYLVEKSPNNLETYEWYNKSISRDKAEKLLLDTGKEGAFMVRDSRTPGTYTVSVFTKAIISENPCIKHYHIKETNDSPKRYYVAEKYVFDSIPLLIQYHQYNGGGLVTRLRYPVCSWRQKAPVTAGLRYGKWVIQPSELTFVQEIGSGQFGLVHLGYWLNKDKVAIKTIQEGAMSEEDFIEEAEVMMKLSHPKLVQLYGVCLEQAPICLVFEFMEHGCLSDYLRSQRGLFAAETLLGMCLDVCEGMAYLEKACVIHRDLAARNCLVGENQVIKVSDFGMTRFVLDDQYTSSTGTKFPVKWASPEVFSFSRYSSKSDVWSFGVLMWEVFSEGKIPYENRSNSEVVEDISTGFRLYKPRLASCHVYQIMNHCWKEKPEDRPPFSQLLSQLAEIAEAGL
pIC50: −log10 of the molar value. No end group written: not given here.
reported.endpoint: pIC50

Exercise: Could you share which pIC50 value was measured for RRRRRRRRRQQPPVPPQRPMA [R9-QQP] ?
Key: ~6.00

From: patent US20100287636A1
